Listed here: items and their measured protein stability index.
B1: TRIM63 (parent)
chain: FRCPTCRHEVIMDRHGVYGLQRNL

variants of: B1; assay: protein stability index of a GFP-peptide fusion (GPS, HEK-293T) (PSI 1-6); higher = more stable; conditions: c terminus: a fixed tail appended;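 note: lentivirally expressed fusions sorted by FACS into six bins by GFP to DsRed ratio, PSI derived from sequencing read proportions per bin multiplied by bin number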
Write the number on its own, no unit after it.

{"SEQUENCE_STRING": "FRCPTCRHEVIMDRHGVYTLQRNL [G19T]", "ENDPOINT_RESULT": 2.8}
{"SEQUENCE_STRING": "FRCPTCRHEVIMDRHPVYGLQRNL [G16P]", "ENDPOINT_RESULT": 2.25}
{"SEQUENCE_STRING": "FRCPTCRHEVIMDRHDVYGLQRNL [G16D]", "ENDPOINT_RESULT": 2.47}
{"SEQUENCE_STRING": "FRCQTCRHEVIMDRHGVYGLQRNL [P4Q]", "ENDPOINT_RESULT": 3.65}
{"SEQUENCE_STRING": "FRCPTCRHEVIMHRHGVYGLQRNL [D13H]", "ENDPOINT_RESULT": 1.83}

# ---- query variant ----
Incoming: Recorded protein stability index of FRCVTCRHEVIMDRHGVYGLQRNL [P4V] , please.
Outgoing: 2.99
